I'd be grateful if you could share measured Kp at 1 h for these entries.
Test: Ratio of drug level in brain to blood in complete Freund's adjuvant-induced rat inflammatory pain model at 3 mg/kg, po administered after 23 hrs of adjuvant challenge measured after 1 hr
Format: ADME, organism-based
Set-up: dose 3 mg/kg, route oral
Conditions: brain and blood
Output spec: single numeric token, no unit.

Query: Please supply the value of reported Kp at 1 h for the item O=C([O-])c1cccc(Cc2cc(Cl)ccc2OCc2ccc(Cl)cc2F)n1.[Na+]
Result: 0.37

Query: Please supply the value of reported Kp at 1 h for the item O=C([O-])c1cccc(Cc2cc(Cl)ccc2OCc2ccc(F)cc2Cl)n1.[Na+]
Result: 0.3

---

Assay: Drug level in rat blood at 0.5 mg/kg/hr administered by infusion for 12 hrs
Format: ADME, organism-based
Conditions: intravenous, read-out: Drug uptake
observed-property: concentration at 12 h (nM)
Could you give me the number in nM? Just the number is fine.

Query: Please supply the value of reported concentration at 12 h for the item O=C([O-])c1cccc(Cc2cc(Cl)ccc2OCc2ccc(Cl)cc2F)n1.[Na+]
Result: 955

---

Assay: Lipophilicity, log D at pH 7.4
Assay type: physicochemical
Settings: buffer
observed-property: logD
Output spec: single numeric token, no unit.

Query: Please supply the value of reported logD for the item O=C([O-])c1cccc(Cc2cc(Cl)ccc2OCc2ccc(F)cc2Cl)n1.[Na+]
Result: 2

Query: Please supply the value of reported logD for the item O=C([O-])c1cccc(Cc2cc(Cl)ccc2OCc2ccc(Cl)cc2F)n1.[Na+]
Result: 2.1

Query: Please supply the value of reported logD for the item O=C(O)c1cccc(Cc2cc(Cl)ccc2OCc2ccc(Cl)cc2Cl)n1
Result: 2.6

---

Experiment: Half life in Beagle dog at 1 mg/kg administered by intravenous infusion for 1 hr
Format: ADME, organism-based, Canis lupus familiaris
Set-up: dose 1 mg/kg, route intravenous
Conditions: in vivo
observed-property: half-life
Number first, unit second.

Query: Please supply the value of reported half-life for the item O=C([O-])c1cccc(Cc2cc(Cl)ccc2OCc2ccc(Cl)cc2F)n1.[Na+]
Result: 1.1 h

---

Assay: Volume of distribution at steady state in cynomolgus monkey at 1 mg/kg administered by intravenous infusion for 1 hr
Type: ADME, organism-based, Macaca fascicularis
Design: dose 1 mg/kg, route intravenous
Conditions: in vivo, read-out: Vdss
observed-property: Vd (L/kg)
Could you give me the number in L/kg? Just the number is fine.

Query: Please supply the value of reported Vd for the item O=C([O-])c1cccc(Cc2cc(Cl)ccc2OCc2ccc(Cl)cc2F)n1.[Na+]
Result: 0.6

---

Assay: Oral bioavailability in Beagle dog at 3 mg/kg
Type: ADME, organism-based, Canis lupus familiaris
Settings: in vivo
observed-property: bioavailability (%)
Could you give me the number in %? Just the number is fine.

Query: Please supply the value of reported bioavailability for the item O=C([O-])c1cccc(Cc2cc(Cl)ccc2OCc2ccc(Cl)cc2F)n1.[Na+]
Result: 39

---

Assay: Oral bioavailability in Sprague-Dawley rat at 3 mg/kg
Assay type: ADME, organism-based
Settings: in vivo
observed-property: bioavailability
Number first, unit second.

Query: Please supply the value of reported bioavailability for the item O=C([O-])c1cccc(Cc2cc(Cl)ccc2OCc2ccc(Cl)cc2F)n1.[Na+]
Result: 94%

---

Molecular target: Prostaglandin E2 receptor EP2 subtype (Homo sapiens)
Sequence (P43116 whole entry): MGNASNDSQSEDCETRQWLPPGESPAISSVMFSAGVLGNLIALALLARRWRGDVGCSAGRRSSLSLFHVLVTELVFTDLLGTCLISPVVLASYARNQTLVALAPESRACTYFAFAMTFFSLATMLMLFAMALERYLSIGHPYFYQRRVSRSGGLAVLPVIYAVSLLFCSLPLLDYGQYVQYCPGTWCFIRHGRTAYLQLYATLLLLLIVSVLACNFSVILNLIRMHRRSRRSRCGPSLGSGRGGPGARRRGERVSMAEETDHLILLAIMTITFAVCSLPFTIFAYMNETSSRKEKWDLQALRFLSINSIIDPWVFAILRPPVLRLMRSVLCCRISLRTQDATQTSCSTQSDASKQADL
observed-property: pIC50
In textbook form, pIC50 equals minus log to base ten of the concentration in mol/L.

Query: Please supply the value of reported pIC50 for the item O=C([O-])c1cccc(Cc2cc(Cl)ccc2OCc2ccc(Cl)cc2F)n1.[Na+]
Result: 5.80

These measurements were taken from ChEMBL document CHEMBL1138602.
